Answer each item with its documented pIC50.
SYSTEM_UNDER_TEST: BIR3 domain of XIAP (Homo sapiens, UniProt P98170)
Construct: BIR3 domain, corresponding to amino acids 241-356 of XIAP
Sequence (P98170 with tags, fused parts or gaps): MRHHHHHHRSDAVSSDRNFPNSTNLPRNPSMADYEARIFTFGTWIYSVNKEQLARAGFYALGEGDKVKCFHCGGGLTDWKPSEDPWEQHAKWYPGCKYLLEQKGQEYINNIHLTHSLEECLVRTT
TEST_PROTOCOL: TR-FRET assay for BIR3 (inhibition of binding of XIAP BIR3 domain to SMAC-derived Peptide A)
TEST_CONDITIONS: 6x Histidine-tagged BIR3 domain (amino acids 241-356 of XIAP) 10 nM, Peptide A 20 nM
pIC50: −log10 of the molar value.

Some solved entries appear below for comparison.
{"COMPOUND": "CCNC(=O)C1Cc2cccnc2N1C(=O)[C@@H](NC(=O)[C@H](C)NC)C(C)C (mixture of isomers)", "pIC50": "< 4.26"}
{"COMPOUND": "CN[C@@H](C)C(=O)N[C@H](C(=O)N1c2ncccc2C[C@H]1C(=O)Nc1c(C)cccc1Cl)C(C)C", "pIC50": "< 4.26"}
{"COMPOUND": "CN[C@@H](C)C(=O)N[C@H](C(=O)N1c2ncccc2C[C@H]1C(=O)Nc1cccc(F)c1)C(C)C", "pIC50": "< 4.26"}
{"COMPOUND": "CC[C@H](NC)C(=O)N[C@H](C(=O)N1CC(C)(C)c2cccnc21)C(C)C", "pIC50": "< 4.26"}
{"COMPOUND": "CCNC(=O)C1Cc2cccnc2N1C(=O)[C@@H](NC(=O)[C@H](C)NC)[C@@H](C)CC (stereo partly shown)", "pIC50": "< 4.26"}
{"COMPOUND": "CN[C@@H](C)C(=O)N[C@H](C(=O)N1c2ncccc2C[C@H]1C(=O)Nc1ccc(C2CCNCC2)cc1)C(C)C", "pIC50": "< 4.26"}
{"COMPOUND": "[2H]C([2H])([2H])N[C@@H](CC)C(=O)N[C@H](C(=O)N1c2ncccc2C[C@H]1C(=O)Nc1ccccc1)C(C)C", "pIC50": "< 4.26"}
{"COMPOUND": "CN[C@@H](C)C(=O)N[C@H](C(=O)N1c2ncccc2C[C@@H]1C(=O)Nc1cnccc1C)C(C)C", "pIC50": "< 4.26"}
{"COMPOUND": "CN[C@@H](C)C(=O)N[C@H](C(=O)N1c2ncccc2C[C@H]1C(=O)Nc1c(C)cccc1F)C1CCOCC1", "pIC50": "< 4.26"}
{"COMPOUND": "CN[C@@H](C)C(=O)N[C@H](C(=O)N1c2ncccc2C[C@@H]1C(=O)Nc1ccccc1OC)C(C)C", "pIC50": "< 4.26"}

I have 2 compounds here; please give me pIC50 for each one.
1. CN[C@@H](C)C(=O)N[C@H](C(=O)N1c2ncccc2CC1C(N)=O)C(C)C (stereo partly shown)
2. CCN[C@@H](C)C(=O)N[C@H](C(=O)N1c2ncccc2C[C@H]1C(=O)Nc1c(F)cccc1F)C(C)C

**Result**
1: < 4.26; 2: < 4.26
